Biological target: Myc proto-oncogene protein (Homo sapiens)
Assay: ATG_Myc_CIS: Attagene CIS-FACTORIAL HepG2 Assay for human Myelocytomatosis (Myc) Proto-Oncogene Transcription Factor (AID 2282990)
Settings: HepG2, Attagene cis-reporter transcription factor activity; actives raise or lower the signal
The source made the active and inactive calls. Rule for the calls: active = hit-call score of the fitted dose curve at least 0.9, where 1 is the maximum; inactive = score below 0.9.
Your response should consist of one outcome taken from Yes = active, No = inactive

CCOC(C=C(C)CCC=C(C)C)OCC = No
FC(F)(F)C(F)(F)C(F)(F)CC1CO1 (stereo not given) = No
O=C(F)C1(F)C(F)(F)C(F)(F)C(F)(F)C(F)(F)C1(F)F = No

Status in this test for OCCCC(F)(F)C(F)(F)C(F)(F)C(F)(F)C(F)(F)C(F)(F)C(F)(F)C(F)(F)F ?
No

I'd appreciate the recorded outcome for Nc1cc([N+](=O)[O-])cc(Cl)c1O from this test.
No

// return assay outcome for CCCCOC(=O)[C@H](C)O
No

What classification did O=C(c1ccccc1)c1ccc(O)cc1O end up with in this test?
No

Please let me know the test result on file for Oc1ccc(C2(c3ccc(O)c(C4CCCCC4)c3)CCCCC2)cc1C1CCCCC1 .
No

Look up the recorded call for OCC(F)(F)C(F)(F)C(F)(F)CO in this test.
No

Record lookup: outcome of this test for O=S(=O)(O)CCC(F)(F)C(F)(F)C(F)(F)C(F)(F)C(F)(F)C(F)(F)C(F)(F)C(F)(F)F ?
No

Called result for C[Si](C)O[Si](C)C
No

# lookup: test call for CCN(CC)c1ccc(C=O)cc1
No

What did this assay record as the result for Cc1ccc(O)cn1 ?
No

Would you mind telling me which call this test gave F[Si-2](F)(F)(F)(F)F ?
No

Status in this test for CCCCCCCCCc1ccc(OCCO)cc1 ?
No

Can you look up the reported call for NC(O)(C(F)(F)F)C(F)(F)F for me?
No

Please let me know the test result on file for O=c1cccc[nH]1 .
No

So what was the verdict on CC(C)(C)c1cc(CCC(=O)OCC(COC(=O)CCc2cc(C(C)(C)C)c(O)c(C(C)(C)C)c2)(COC(=O)CCc2cc(C(C)(C)C)c(O)c(C(C)(C)C)c2)COC(=O)CCc2cc(C(C)(C)C)c(O)c(C(C)(C)C)c2)cc(C(C)(C)C)c1O in this test?
No

Outcome logged for N#Cc1ccccc1O in this assay:
No

Tell me the recorded outcome of this test for CC(C)OC(=O)COc1ccc(Cl)cc1Cl .
No

Test call for this compound, please: CCN(CC)c1ccc(N=Nc2ccccc2)cc1
No

What did this assay record as the result for Nc1c(Br)cc([N+](=O)[O-])cc1Br ?
No

Recorded test outcome, item CCOC(=O)C1CC(=O)C(=C(O)C2CC2)C(=O)C1 (stereo not given)
No

Assay result, entry O=C1c2ccccc2C(=O)c2c(Cl)cccc21 — outcome?
No

Look up the recorded call for O=C(O)C(F)(F)C(F)(F)C(F)(F)OC(F)(F)F in this test.
No

Check the results log: what was the call for NC(=O)C(F)(F)C(F)(F)C(F)(F)C(F)(F)C(N)=O ?
No

Call for entry CC(O)C#CC(C)O (stereo not given) :
Yes

I'd appreciate the recorded outcome for CCC(=O)OC(C)c1ccccc1 (stereo not given) from this test.
No
